Data origin: patent US20050058649A1

# testSystem: T1, phospholipase A2 (PLA2) (Homo sapiens (Human), UniProt O15496 43-165)
# T1 construct: PLA2 as used in Biacore, MCAB binning, peptide scan and the purified-antibody functional assay; also called PLA2 antigen
# T1 sequence: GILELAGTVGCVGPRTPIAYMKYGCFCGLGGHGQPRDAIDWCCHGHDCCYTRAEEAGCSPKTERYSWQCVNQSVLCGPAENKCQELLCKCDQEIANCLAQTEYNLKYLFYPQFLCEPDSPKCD
# test: Biacore 2000, captured Ab, global 1:1 fit
Listed below: koff values for each entry.
Express your answer in s⁻¹, writing the number without its unit.

// query For the binder shown here, anti-PLA2 mAb 2.15 (antibody, IgG4, V domains shown) VH: QVQLVESGGGVVQPGRSLRLSCAASGFTFSSYGMHWVRQAPGKGLEWVAVIWYDGSNKYYADSVKGRFTISRDNSKNTLYLQMNSLRAEDTAVYYCARRDWNYAFDIWGQGTMVTVSS VL: DIQMTQSPSSLSASVGDRVTITCRASQSISNYLNWYQQKPGKAPKFLIYAASSLQSGAPSRFSGSGSGTDFTLTISSLQPEDFATYYCQQSYSTPITFGQGTRLEIKR , give the reported koff.
// result 0.000902

// query For the binder shown here, anti-PLA2 mAb 1.18 (antibody, IgG2, V domains shown) VH: EVQLVQSGAEVKKPGESLKISCKGSGYSFTNYWINWVRQMPGKGLEWMGIIYPGDSDTRYSPSFQGQVTISADKSISTAYLQWSSLKASDTAMYYCARHRLGFDYWGQGTLVTVSS VL: DIQMTQSPSSLSASVGDRVTITCRASQGIRNDLDWCQQKPGKAPKRLIYAASSLQSGVPSRFSGSGSGTEFTLTISSLQPEDFATYYCLQHNNYPPTFGQGTKVEIKR , give the reported koff.
// result 0.00192

// query For the binder shown here, anti-PLA2 mAb 2.23 (antibody, IgG4, V domains shown) VH: QVQLEESGGGVVQPGRSLRLSCAASGFTFSSYGMHWVRQGPGKGLEWVAVIWYDGSNKKYADSVKGRFTISRDNSKNTLYLQMNSLRAEDTAVYYCARDGPIFGVVMGYWGQGTLVTVSS VL: DIQMTQSPSSLSASVGDRVTITCRTSQSISNYLNWFQQKPGKAPILLIYAASSLQSGVPSRFSGSGSGTDFTLTISSLQPEDFATYYCHQSYSIPITFGQGTRLEIKR , give the reported koff.
// result 0.000969
